Origin of measurements: ChEMBL document CHEMBL6134844

Assay: Selectivity index, ratio of CC50 for Macaca mulatta hepatocytes to IC50 for antiplasmodial activity against schizont Plasmodium cynomolgi B strain infected in Macaca mulatta hepatocytes incubated with sporozoite containing salivary gland homogenate obtained from dissected Anopheles dirus mosquitoes (infected with Plasmodium cynomolgi B strain) treatment started on day 4 post infection and continued daily for 4 days into fresh changed media until day 8 assessed as Liver stage (LS) activity by measuring radical cure mode by immunofluorescent staining analysis
Assay type: toxicity, cell-based
Conditions: rhesus monkey, read-out: Selectivity Index

| structure_smiles | rel | selectivity ratio at 96 h |
| --- | --- | --- |
| O=c1c2ccc(OCc3ccc(OC(F)(F)F)cc3)cc2[nH]c2cc(Cl)cc(F)c12 | = | 2.96 |
| O=c1c2ccc(Oc3ccc(OC(F)(F)F)cc3)cc2[nH]c2ccc(Cl)c(F)c12 | = | 2.17 |
| CC(C)(C)OC(=O)N1CCC(Oc2ccc3c(=O)c4c(F)cc(Cl)cc4[nH]c3c2)CC1 | = | 3.24 |
| O=c1c2c([nH]c3cc(Oc4ccc(OC(F)(F)F)cc4)ccc13)CCCC2 | = | 1.61 |
| O=c1c2ccc(Oc3cccc(OC(F)(F)F)c3)cc2[nH]c2cc(Cl)cc(F)c12 | > | 1.24 |
| O=c1c2ccccc2[nH]c2cc(Oc3ccc(OC(F)(F)F)cc3)ccc12 | = | 1.72 |
| O=c1c2ccc(Oc3ccccc3OC(F)(F)F)cc2[nH]c2cc(Cl)cc(F)c12 | = | 2.19 |
| CC(C)(C)OC(=O)N1CCC(Oc2ccc3c(=O)c4c(Cl)cc(F)cc4[nH]c3c2)CC1 | = | 1.2 |
| O=c1c2c([nH]c3cc(Nc4ccc(OC(F)(F)F)cc4)ccc13)CCCC2 | = | 1.29 |

* * *

Reported IC50 values follow for various compounds
Tested on: HepG2
Assay: Cytotoxicity against human HepG2 cells assessed as cell viability measured after 48 hrs by MTT assay
Assay type: functional, cell-based
Settings: HepG2, 48 h

| compound | IC50 |
| --- | --- |
| CCCN(CCC)CCCOc1ccc2c(=O)c3c([nH]c2c1)CCCC3 | > 200 µM |
| O=c1c2ccc(OC3CCNCC3)cc2[nH]c2cc(F)cc(Cl)c12 | 48.9 µM |
| O=c1c2c([nH]c3cc(OC(F)(F)F)ccc13)CCCC2 | > 200 µM |
| O=c1c2cc(Oc3ccc(OC(F)(F)F)cc3)ccc2[nH]c2cc(Cl)cc(F)c12 | > 200 µM |
| O=c1c2ccc(OC3CCNCC3)cc2[nH]c2cc(Cl)cc(F)c12 | 38.2 µM |
| O=c1c2ccccc2[nH]c2cc(Oc3ccc(OC(F)(F)F)cc3)ccc12 | > 200 µM |
| O=c1c2ccc(Oc3cccc(OC(F)(F)F)c3)cc2[nH]c2cc(Cl)cc(F)c12 | > 200 µM |
| CN1CCC(Oc2ccc3c(=O)c4c(F)cc(Cl)cc4[nH]c3c2)CC1 | 55.6 µM |
| O=c1c2cc(F)c(Oc3ccc(OC(F)(F)F)cc3)cc2[nH]c2cc(Cl)cc(F)c12 | > 200 µM |
| O=c1c2c([nH]c3cc(Oc4ccccc4OC(F)(F)F)ccc13)CCCC2 | > 200 µM |
| O=c1c2ccc(Oc3cccc(OC(F)(F)F)c3)cc2[nH]c2cc(F)c(Cl)cc12 | > 200 µM |
| O=c1c2cccc(Oc3ccc(OC(F)(F)F)cc3)c2[nH]c2cc(Cl)cc(F)c12 | 92.9 µM |
| O=c1c2c([nH]c3cccc(Oc4ccc(OC(F)(F)F)cc4)c13)CCCC2 | > 200 µM |
| O=c1c2c([nH]c3cc(Oc4ccc(OC(F)(F)F)cc4)c(F)cc13)CCCC2 | > 200 µM |
| CC(C)(C)OC(=O)N1CCC(Oc2ccc3c(=O)c4c(F)cc(Cl)cc4[nH]c3c2)C1 (stereo not given) | > 2.5 µM |
| O=c1c2ccc(OCc3ccc(OC(F)(F)F)cc3)cc2[nH]c2cc(Cl)cc(F)c12 | 177 µM |
| O=c1c2ccc(Oc3ccccc3OC(F)(F)F)cc2[nH]c2cc(Cl)cc(F)c12 | > 200 µM |
| O=c1c2c(F)cc(Cl)cc2[nH]c2cccc(Oc3ccc(OC(F)(F)F)cc3)c12 | 189 µM |
| O=c1c2c([nH]c3cc(OCc4ccc(OC(F)(F)F)cc4)ccc13)CCCC2 | > 200 µM |
| O=c1c2ccc(Oc3ccc(OC(F)(F)F)cc3)cc2[nH]c2cc(F)c(Cl)cc12 | > 200 µM |

* * *

Test system: Plasmodium cynomolgi
Assay: Antiplasmodial activity against schizont Plasmodium cynomolgi B strain infected in Macaca mulatta hepatocytes incubated with sporozoite containing salivary gland homogenate obtained from dissected Anopheles dirus mosquitoes (infected with Plasmodium cynomolgi B strain) treatment started on day 4 post infection and continued daily for 4 days into fresh changed media until day 8 assessed as Liver stage (LS) activity by measuring radical cure mode by immunofluorescent staining analysis
Format: functional, organism-based
Conditions: Hepatocyte
Reported IC50 is given for each of the following compounds.

| structure_smiles | result_unit | rel | IC50 |
| --- | --- | --- | --- |
| O=c1c2c([nH]c3cc(OC(F)(F)F)ccc13)CCCC2 | µM | > | 20 |
| O=c1c2c([nH]c3cc(Oc4cccc(OC(F)(F)F)c4)ccc13)CCCC2 | µM | = | 6.87 |
| O=c1c2ccc(Oc3ccc(OC(F)(F)F)cc3)cc2[nH]c2cc(F)c(Cl)cc12 | µM | = | 6.55 |

* * *

Here, each record is paired with measured CLH data.
Details: mouse, microsomes, 1 h
measured_metric: CLH (µL/min/mg)

| molecule | result_unit | rel | experimental_result |
| --- | --- | --- | --- |
| O=c1c2ccc(Oc3ccc(OC(F)(F)F)cc3)cc2[nH]c2ccc(F)c(Cl)c12 | µL/min/mg | = | 11.6 |
| CCCN(CCC)CCCOc1ccc2c(=O)c3c([nH]c2c1)CCCC3 | µL/min/mg | > | 500 |
| O=c1c2c([nH]c3cc(Nc4ccc(OC(F)(F)F)cc4)ccc13)CCCC2 | µL/min/mg | = | 56 |
| O=c1c2c([nH]c3cc(Oc4ccccc4OC(F)(F)F)ccc13)CCCC2 | µL/min/mg | = | 72.1 |
| O=c1c2ccc(OCc3ccc(C(F)(F)F)cc3)cc2[nH]c2cc(Cl)cc(F)c12 | µL/min/mg | < | 3.125 |
| O=c1c2ccc(Oc3cccc(OC(F)(F)F)c3)cc2[nH]c2cc(F)c(Cl)cc12 | µL/min/mg | < | 3.125 |
| O=c1c2c([nH]c3cc(Oc4cccc(OC(F)(F)F)c4)ccc13)CCCC2 | µL/min/mg | = | 29.7 |
| O=c1c2c([nH]c3cc(Oc4ccc(OC(F)(F)F)cc4)c(F)cc13)CCCC2 | µL/min/mg | = | 74.9 |
| CC(C)(C)OC(=O)N1CCC(Oc2ccc3c(=O)c4c(F)cc(Cl)cc4[nH]c3c2)C1 (stereo not given) | µL/min/mg | < | 3.125 |
| O=c1c2c([nH]c3cc(OCc4ccc(OC(F)(F)F)cc4)ccc13)CCCC2 | µL/min/mg | = | 31.9 |

* * *

// reported pIC50 for each item listed
System: Plasmodium cynomolgi
Experiment: Antiplasmodial activity against schizont Plasmodium cynomolgi B strain infected in Macaca mulatta hepatocytes incubated with sporozoite containing salivary gland homogenate obtained from dissected Anopheles dirus mosquitoes (infected with Plasmodium cynomolgi B strain) treatment started on day 4 post infection and continued daily for 4 days into fresh changed media until day 8 assessed as Liver stage (LS) activity by measuring radical cure mode by immunofluorescent staining analysis
Type: functional, organism-based
Settings: Hepatocyte
pIC50: −log10 of the molar value.

| molecule | rel | pIC50 |
| --- | --- | --- |
| CC(C)(C)OC(=O)N1CCC(Oc2ccc3c(=O)c4c(Cl)cc(F)cc4[nH]c3c2)CC1 | = | 5.40 |
| O=c1c2c([nH]c3ccc(Oc4ccc(OC(F)(F)F)cc4)cc13)CCCC2 | < | 4.70 |
| CC(C)(C)OC(=O)N1CCC(Oc2ccc3c(=O)c4c(F)cc(Cl)cc4[nH]c3c2)C1 (stereo not given) | = | 6.02 |
| O=c1c2ccc(OCc3ccc(C(F)(F)F)cc3)cc2[nH]c2cc(Cl)cc(F)c12 | = | 6.09 |
| O=c1c2cc(Oc3ccc(OC(F)(F)F)cc3)ccc2[nH]c2cc(Cl)cc(F)c12 | < | 4.70 |

* * *

Assay: AUClast in male ICR-CD1 mouse liver at 40 mg/kg, po
Format: ADME, organism-based

| structure_smiles | AUC(0-t) / ng·h/mL |
| --- | --- |
| O=c1c2c([nH]c3cc(Oc4ccc(OC(F)(F)F)cc4)c(F)cc13)CCCC2 | 5470 |
| O=c1c2c([nH]c3cc(Oc4ccc(OC(F)(F)F)cc4)ccc13)CCCC2 | 32900 |
